system.tested: Cytochrome P450 2C19 (Homo sapiens) (UniProt P33261)
Sequence (P33261 whole entry, looked up): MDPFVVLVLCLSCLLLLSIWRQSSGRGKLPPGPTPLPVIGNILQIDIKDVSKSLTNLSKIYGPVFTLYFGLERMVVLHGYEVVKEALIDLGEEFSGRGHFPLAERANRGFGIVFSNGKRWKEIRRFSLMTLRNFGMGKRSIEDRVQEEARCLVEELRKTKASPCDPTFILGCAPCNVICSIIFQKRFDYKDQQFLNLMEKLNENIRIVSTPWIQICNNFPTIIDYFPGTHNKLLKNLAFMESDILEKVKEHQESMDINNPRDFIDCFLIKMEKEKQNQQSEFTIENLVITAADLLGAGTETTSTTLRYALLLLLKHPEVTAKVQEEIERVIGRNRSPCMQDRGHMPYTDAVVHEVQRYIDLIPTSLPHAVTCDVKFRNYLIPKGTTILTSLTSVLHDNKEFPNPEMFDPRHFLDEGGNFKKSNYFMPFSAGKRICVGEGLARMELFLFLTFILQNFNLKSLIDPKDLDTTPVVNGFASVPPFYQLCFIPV
test.summary: blockers of cytochrome P450 2C19 activity – biochemical, luminescence, ADME assay, primary screen (AID 778);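 note: plate controls were negative control wells for no effect and 2.5 mM tranylcypromine positive control for full effect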
test.context: CYP2C19 Supersomes, luciferin-H EGE luminescence, 30 min; at 5 µM; hits give high values
The campaign covered roughly 96,000 compounds. About 20,000 (21%) were called active. These entries were drawn from the full list.
assay.metric: inhibition (%)
Field format: number, assumed %, no unit text.

Q: Looking for the measured inhibition of COc1cc(/C=C(\C#N)c2nc3c(s2)CC(C)CC3)ccc1O (stereo not drawn) , can you help?
Ans: 2.4

Q: Form field: reported inhibition of CCc1nc(C)ccc1OCC(=O)N(CC)CC
Ans: 0.2

Q: Tell me the measured inhibition of O=C(CN1C(=O)NC(Cc2ccccc2)(Cc2ccccc2)C1=O)NCC1CCCCC1 , please.
Ans: 41.6

Q: Dear colleague, I am looking for the recorded inhibition of the following compound: COCCNC(=O)COc1ccc(C)c(C)c1
Ans: -3.5

Q: Any idea what its inhibition is? The compound is CC(C)(C)c1cc2cccnc2n1Cc1cccc(F)c1
Ans: 14.8

Q: Data request, read-out inhibition, for CCOC(=O)N1CCN(C(=O)C2CCN(c3ncnc4c3sc3cccc(F)c34)CC2)CC1
Ans: 24.8

Q: Return reported inhibition; argument: CCOC(=O)N1CCN(C(=O)c2cn(C)c3ccc(S(=O)(=O)N4CCCC4)cc3c2=O)CC1
Ans: -12.6

Q: Reported inhibition for CC(=O)Oc1ccc2c(C)c(CC(C)O)c(=O)oc2c1 (stereo not drawn) : what is it?
Ans: 42.8

Q: Reported inhibition, compound O=C(NCCCN1CCN(Cc2ccccc2)CC1)C1CCN(S(=O)(=O)N2CCCC2)CC1 : ____
Ans: -1.9

Q: Name the reported inhibition value associated with the compound O=C1CC(Sc2ncn[nH]2)C(=O)N1c1ccccc1 (stereo not drawn)
Ans: 14.1

Q: // query inhibition value for entry O=C(NCc1ccccc1)C1C(=O)N(Cc2ccccc2)C(=O)C1C1(O)CCCC1 (stereo not drawn)
Ans: 91.9

Q: Returns the measured inhibition for the input compound. Input: Cc1cc(C)n(-c2ccc(Cl)c(C(=O)O)n2)n1
Ans: -6.9

Q: Would you kindly share the measured inhibition for Cc1ccc(S(=O)(=O)N(c2cccc(C)c2)C2CCS(=O)(=O)C2)cc1 (stereo not drawn) ?
Ans: -10.2

Q: Quick one: inhibition for COc1ccc(CCNC(=O)C2CCN(c3nn4c(=O)cc(C)nc4s3)CC2)cc1OC ?
Ans: -7

Q: Please look up its inhibition: Cc1ccc(/C=N/NC(=O)Cn2nc(C)c(Br)c2C)o1
Ans: 50.5

Q: Using the record for O=C(Nc1cnn(Cc2ccc(Cl)cc2)c1)C1CCCC1 , report its inhibition.
Ans: 84.8

Q: What does the data say about its inhibition? Entry: COc1ncnc2c1N=C1CC(C)(C)CC(N)=C1S2
Ans: 4.5

Q: # lookup: inhibition of COCCNC(=O)COc1ccccc1C
Ans: 2

Q: Quick one: inhibition of CC(NC(=O)c1ccco1)C(=O)Nc1nc(-c2ccccn2)cs1 (stereo not drawn) ?
Ans: 6

Q: Consider the compound shown here: CC(C)(C)C(=O)Nc1ccc(C(=O)N/N=C/c2ccccc2OC(=O)c2ccc(Cl)cc2Cl)cc1 What is its recorded inhibition?
Ans: 42.1

Q: Dear colleague, I am looking for the recorded inhibition of the following compound: O=C(O)C1CCCCC1C(=O)Nc1ccc(Cl)cc1 (stereo not drawn)
Ans: 29.9

Q: // returns reported inhibition for input COc1ccc(CCN(C)C(=O)C2CCCN(Cc3ccc(OC)c(OC)c3)C2)cc1OC (stereo not drawn)
Ans: 13.3

Q: Consider the compound shown here: O=C(NCCCNCc1ccccc1)c1ccc(/C=N/O)nc1 What is its recorded inhibition?
Ans: -13.4

---

Exercise: for every item that follows, state its recorded inhibition.
system.tested: Cytochrome P450 2C19 (Homo sapiens) (UniProt P33261)
test.summary: blockers of cytochrome P450 2C19 activity – biochemical, luminescence, ADME assay, primary screen (AID 778);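 note: plate controls were negative control wells for no effect and 2.5 mM tranylcypromine positive control for full effect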
test.context: CYP2C19 Supersomes, luciferin-H EGE luminescence, 30 min; at 5 µM; hits give high values
Out of some 96,000 compounds screened, about 20,000 (21%) were called active. Not all results are given here.

Q: Would you kindly share the measured inhibition for CSCCC(C(=O)NC1=NCCS1)N1C(=O)c2ccccc2C1=O (stereo unspecified) ?
Ans: 17.5% (inactive)

Q: Which value of inhibition has been reported for O=C(NC1=NCCS1)[C@H](Cc1ccccc1)N1C(=O)c2ccccc2C1=O in the records?
Ans: 57.5% (active)

Q: Endpoint output: inhibition of O=S(=O)(c1cccs1)N1CCc2ccccc2C1 . Value?
Ans: 78% (active)

Q: Recorded inhibition of CCCCNc1nc2ccccc2nc1NS(=O)(=O)c1cccs1 , please.
Ans: 2.4% (inactive)

Q: What value of inhibition has been recorded for this entry: Cc1ccc(OCC(=O)Nc2ccc(-c3nnc(-c4ccco4)o3)cc2)cc1
Ans: 44.4% (inactive)

Q: # lookup: inhibition of CCOC(=O)c1c(NC(=O)c2cccs2)sc(C)c1C
Ans: -10.4% (inactive)

Q: Endpoint output: inhibition of O=C(Nc1ccc(S(=O)(=O)N2CCc3ccccc3C2)cc1)c1ccccc1 . Value?
Ans: 0.3% (inactive)

Q: May I ask what inhibition has been recorded for CCOC(=O)c1ccc(NC(=O)CSc2nnc(COc3ccccc3OC)n2C)cc1 ?
Ans: 38.9% (inactive)

Q: Form field: reported inhibition of COc1cccc(-c2nnc(NC(=O)c3ccc(S(=O)(=O)N(CC(C)C)CC(C)C)cc3)o2)c1
Ans: 2.9% (inactive)

Q: Would you kindly share the measured inhibition for CCc1c(C)sc(NC(=O)c2cccs2)c1C(N)=O ?
Ans: 84.1% (active)

Q: May I ask what inhibition has been recorded for Fc1ccccc1/C=C1\CCCC2=C1Nc1ncnn1C2c1ccccc1F (stereo unspecified) ?
Ans: 45.3% (inactive)

---

system.tested: Cytochrome P450 2C19 (Homo sapiens) (UniProt P33261)
test.summary: blockers of cytochrome P450 2C19 activity – biochemical, luminescence, ADME assay, primary screen (AID 778);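 note: plate controls were negative control wells for no effect and 2.5 mM tranylcypromine positive control for full effect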
test.context: CYP2C19 Supersomes, luciferin-H EGE luminescence, 30 min; at 5 µM; hits give high values
The campaign covered roughly 96,000 compounds. About 20,000 (21%) were called active. Not all results are given here.
Respond with Met for inhibition values of 20% and above, Not met for values below.

Q: Hi, just wondering whether COC(=O)c1ccccc1NC(=O)CN(Cc1ccc(Cl)cc1)S(C)(=O)=O shows inhibition of 20% or higher.
Ans: Met

Q: Could you tell me if the measured inhibition of CCCCCCn1c(CN2CCCC(C)C2)nc2c1c(=O)n(C)c(=O)n2C (stereo unspecified) reaches 20% or more?
Ans: Not met

Q: Hi, just wondering whether CN(C(=O)CSc1nnnn1-c1ccccc1)C1CCCCC1 shows inhibition of 20% or higher.
Ans: Met

Q: // inclusive: inhibition at least 20%? input: CC1C(c2ccccc2)=[N+]([O-])C2(CCCC2)N1O (stereo unspecified)
Ans: Not met

Q: Check if inhibition >= 20% (inclusive). Item: O=C(OCC(=O)N1CCCC1)c1ccco1
Ans: Not met

Q: Determine whether this molecule has inhibition no lower than 20%: COC(=O)c1ccc(NC(=O)c2ccccc2NS(=O)(=O)c2ccccc2)cc1
Ans: Met

Q: Would you say CCOc1ccc(NC(=O)c2ccccc2NS(C)(=O)=O)cc1 shows inhibition at minimum 20%?
Ans: Not met

Q: Decide: inhibition of COc1ccc(-c2nc(-c3ccccc3)no2)c(OC)c1 >= 20%?
Ans: Not met

Q: Entry COC(=O)c1ccccc1NC(=O)CN(Cc1ccccc1)S(C)(=O)=O : is its inhibition no less than 20%?
Ans: Not met

Q: Please check the record O=S(=O)(N/N=C\c1cccn1-c1ccccc1)c1ccc2ccccc2c1 and state if its inhibition is at or above 20%.
Ans: Met

Q: Determine whether this molecule has inhibition no lower than 20%: C=CCN(N=Nc1cccc([N+](=O)[O-])c1)c1cccc([N+](=O)[O-])c1
Ans: Not met

---

system.tested: Cytochrome P450 2C19 (Homo sapiens)
test.summary: blockers of cytochrome P450 2C19 activity – biochemical, luminescence, ADME assay, primary screen (AID 778);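 note: plate controls were negative control wells for no effect and 2.5 mM tranylcypromine positive control for full effect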
test.context: CYP2C19 Supersomes, luciferin-H EGE luminescence, 30 min; at 5 µM; hits give high values
The whole screen tested about 96,000 compounds, of which about 20,000 (21%) were called active. A selection follows.
Please go through the items and note down their inhibition.
A number alone suffices; assume %.

Q: inhibition lookup needed for Cn1c(CCN2CCCCCC2)nc2cc(NC(=O)Nc3ccccc3)ccc21 , thanks.
Ans: -3.4

Q: Fill in: inhibition of CCCCOc1ccc(NC(=O)CSCC(=O)OCC)cc1 is ___
Ans: 14.3

Q: Dear colleague, I am looking for the recorded inhibition of the following molecule: COC(=O)C(NC(C)=O)(Nc1nc2c(s1)CCCC2)C(F)(F)F (stereo not drawn)
Ans: 39.3

Q: Given the entry COc1ccc(CCNC(=O)c2ccc3c(c2)NC(=O)C(N2CCOCC2)S3)cc1OC (stereo not drawn) , report its measured inhibition.
Ans: 43.7

Q: Entry under review: CCOc1cccc(-c2nn3c(-c4ccccn4)nnc3s2)c1 . Reported inhibition?
Ans: -1.6

Q: # input molecule: Cc1cc(C)c(C#N)c(SCc2ccccc2C(=O)O)n1 ; wanted: its inhibition
Ans: -6

Q: // returns reported inhibition for input Cc1cc(C)c(C#N)c(SCc2ccc3c(c2)OCO3)n1
Ans: 96.5

Q: // query inhibition value for entry Cc1cn(COC/C=C/c2ccccc2)c(=O)[nH]c1=O
Ans: 24.1

Q: Suppose we examine the molecule COc1ccc(-c2nnn(Cc3nc(N)nc(N4CCCCC4)n3)n2)cc1 ; what inhibition value has been reported?
Ans: 65.2

Q: Given the entry COc1ncnc2sc3c(c12)CCCC3 , report its measured inhibition.
Ans: 36.6

Q: # lookup: inhibition of COc1ccc(Cn2c(C)c(C)c(C#N)c2NC(=O)Nc2ccc(F)cc2)cc1
Ans: 4.4

Q: Entry CCC(=O)NC(Nc1nc2ccc(C)cc2s1)(C(=O)OC)C(F)(F)F (stereo not drawn) has what inhibition?
Ans: 85.5

Q: State the recorded inhibition for this entry: COc1cc(-c2nn3c(-c4cccc(C)c4)nnc3s2)cc(OC)c1OC
Ans: 79.2

Q: Form field: reported inhibition of Cc1cc(C)c(C#N)c(SCc2[nH]nc3c2C(c2ccccc2)C(C#N)=C(N)O3)n1 (stereo not drawn)
Ans: -13.6

Q: Field request: inhibition | item: CN(CCc1ccccn1)S(=O)(=O)c1ccc2c3c(cccc13)C(=O)N2
Ans: 93.6

Q: Entry O=c1[nH]nc(Cc2ccccn2)c2ccccc12 : reported inhibition = ?
Ans: -0.8

Q: Sample CCCCn1c(SCc2ncc(-c3ccccc3)o2)nc2cc(S(N)(=O)=O)ccc21 — what was its inhibition?
Ans: 25

Q: GET /values?readout=inhibition&item= COCCn1c(C)cc(C(=O)CSc2ncnc3sc4c(c23)CCC4)c1C
Ans: 57.5

Q: Give its inhibition value. Item: Nc1c(C(=O)NCc2ccccc2)nnn1Cc1cccc(Cl)c1
Ans: 6.4

Q: Please give the measured inhibition for this molecule: Cc1cc(NC(=O)Nc2ccccc2)n(-c2ccccc2)n1
Ans: 29.8

Q: Fill blank: measured inhibition of the molecule COc1ccc(CC(=O)Nc2sc(Cc3ccccc3)c(C)c2C(N)=O)cc1 is ____.
Ans: 1

Q: // query inhibition value for entry COc1ccc(-c2nn3c(-c4ccccc4)nnc3s2)cc1OC
Ans: 0.9

Q: What value of measured inhibition is listed for O=C(NC1CCCCC1)N1CCc2[nH]c3ccccc3c2C1 ?
Ans: 44.1
